Every entry's value here was drawn from PubChem BioAssay (NCI).

# experimental-protocol: NCI Yeast Anticancer Drug Screen. Data for the rad50 strain (AID 155);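 note: 0% = growth of vehicle-only cultures of the same strain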
# condition-parameters: S. cerevisiae rad50 strain growth inhibition; at 50.0 µM; active compounds read high
This is part of a sample that, as a whole, favours compounds with a hit. Of some 79,000 tested, about 15% had one in any assay.
measured-parameter: growth inhibition (%)

1) C=C1C(=O)OC2CC3(C)OC3C3OC3C3=CC(OC3=O)C12 (stereo unspecified) : 18.9
2) CCC[CH2][Sn]([CH2]CCC)([n]1cncn1)[n]1cncn1 : 92.2
3) CC(C(=O)c1ccccc1)N(C)Cc1ccccc1 (stereo unspecified) : -27.4
4) CN1CCC(O)(c2ccc(Br)cc2)C(C(=O)c2ccc(Br)cc2)C1 (stereo unspecified) : 96.1
5) CC1(C)N=C(N)N=C(N)N1c1ccc(OCCCOc2ccc(S(=O)(=O)F)cc2)cc1 : 35.1
6) O=C(CCN1CC=C(c2ccccc2)CC1)c1ccc(F)cc1 : 76.5
7) CC(I)C(N)=O (stereo unspecified) : -16.6
8) N/C(=N\NS(=O)(=O)c1ccccc1)N[N+](=O)[O-] : -3.1
9) SCCS : -20.1
10) O=C(O)CCCC(=O)CCCC(=O)O : 0.3
11) O=NNc1cncc(NN=O)n1 : -37.9
12) O=S(=O)(c1ccccc1)N1CC1CI (stereo unspecified) : 3.45
13) C1CC[N-]CC1.CN(C)P(=O)(N(C)C)N(C)C.OO.OO.[O]=[Mo] : 11.3
14) CCCCCC(=O)c1c(O)cc2c(c1O)C(=O)c1c(O)cc(O)cc1C2=O : 10.2
15) CC(=O)Nc1ccc(Cl)cc1 : -20.4
16) NC1CN2CCC1CC2 (stereo unspecified) : 9.35
17) OC1NC2CC3NC(O)C(O)NC3CC2NC1O (stereo unspecified) : -16.6
18) C[n+]1ccccc1-c1ccc[n+](CCCCC[n+]2cccc(-c3cccc[n+]3C)c2)c1 : 4.45
19) N#CCc1ccccc1CC#N : 20.8
20) O=C(NC(Cl)=C(Cl)Cl)P(=O)(c1ccccc1)c1ccccc1 : -16.6
21) CC(=O)C(=[N+]=[N-])C(=O)N(C)CCC#N : -7.3
22) CC(C)c1cc2c(c(O)c1O)[C@@]1(C(=O)O)CCCC(C)(C)[C@@H]1CC2 : 91.8
23) CCOC(=S)S.[Cu+2] : 2.55
24) CCOC(=O)C[S][Sn]([Cl])([Cl])[S]CC(=O)OCC : 0.6
25) N#Cc1ccc(C(Cl)(Cl)Cl)cc1 : 1.5
26) NC1=C(c2nc(-c3cc4ccccc4oc3=O)cs2)C(c2ccco2)c2c(c3ccccc3oc2=O)O1 (stereo unspecified) : -3.15
27) CCOC(=O)CC(Br)C(=O)CBr (stereo unspecified) : -9.15
28) COC(=O)CN(C)P(=O)(N1CC1)N1CC1 : 13.4
29) O=C(/C=C/c1ccccc1)NCCc1cnc[nH]1 : 0.65
30) CCOP(=O)(OCC)/C(C#N)=C/c1nccn1C : -15.2
31) O=[As]c1ccc2c(c1)NC(O)=CO2 (stereo unspecified) : 21.9
32) O=P1(c2ccccc2)CCCCN1 (stereo unspecified) : 12.2
33) Cc1cc([N+](=O)[O-])c(N)c([N+](=O)[O-])c1 : -1.55
34) N#CS.N=C=S.O=N[O-].[Co+3].[NH-]CC[NH-].[NH-]CC[NH-] : -6.55
35) CN1CCC(O)(c2ccccc2)C(O)C1 (stereo unspecified) : 11.2
36) CN(C)C1OCCO1 : -8.45
37) Cc1ncc(CNC(=O)N(CCCl)N=O)c(N)n1 : 0.45
38) CN=NNc1nc[nH]c1C(N)=O : 23.9
39) C/C=C1/C[C@@H](C)[C@@](C)(O)C(=O)OCC2=CC[N+]3([O-])CC[C@@H](OC1=O)[C@@H]23 (stereo partly specified) : -0.9
40) CCCCCCCCSP(SCCCCCCCC)SCCCCCCCC : -11.8
41) C[C@H](O)CCC(=O)c1ccoc1 : -5.65
42) C(=C\C1CC2CCCN2O1)/c1ccccc1 (stereo unspecified) : 39.9
43) O=CC1(c2ccccc2)CCN(Cc2ccccc2)CC1 : 38.8
44) Cc1ccc(N2C(=O)C3C(C2=O)C2(Cl)C(Cl)=C(Cl)C3(Cl)C2(Cl)Cl)cc1Cl (stereo unspecified) : -1.25
45) O=[N+]([O-])c1cccc(P(=O)(O)O)c1 : -7.3
46) O=NN1CCN(N=O)CC1 : 4.9

====

Measured growth inhibition, listed per entry for reference.
# experimental-protocol: NCI Yeast Anticancer Drug Screen. Data for the cln2 rad14 strain (AID 165);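 note: 0% = growth equal to vehicle treated cultures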
# condition-parameters: S. cerevisiae cln2 rad14 strain, at 50.0 µM, active compounds read high
Compounds without any hit were thinned out: in the full panel of roughly 79,000, 15% have a hit.
measured-parameter: growth inhibition (%)

1) O=C(O)C(F)(F)C(F)(Cl)C(F)(F)C(F)(Cl)C(F)(F)Cl (stereo not drawn) (tested in a mixture with another compound) : -28.2
2) O=S1(=O)CCCCO1 : 17.2
3) COP(=O)(OC)O/C(=C(/OP(=O)(OC)OC)c1ccccc1)c1ccccc1 : 24.1

====

# experimental-protocol: NCI Yeast Anticancer Drug Screen. Data for the cln2 rad14 strain (AID 165);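 note: 0% = growth equal to vehicle treated cultures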
# condition-parameters: S. cerevisiae cln2 rad14 strain, at 50.0 µM, active compounds read high
About 79,000 compounds went through this panel and 15% of them were active in at least one assay; those are over-represented in the sample as a whole.
Reported growth inhibition values follow for various compounds
measured-parameter: growth inhibition (%)

1) C1CCN2COCC2C1 (stereo not given) : 0.7
2) CN(N=O)C(=O)ON1C(=O)CCC1=O : 12.4
3) SCc1ccccc1.[Cu+2] : -35.1
4) CCC(Br)(CC)C(=O)NC(N)=O : -16.4
5) Nc1nn[nH]n1 (tested in a mixture with another compound) : -27.1

====

# experimental-protocol: NCI Yeast Anticancer Drug Screen. Data for the cln2 rad14 strain (AID 165);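 note: 0% = growth equal to vehicle treated cultures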
# condition-parameters: S. cerevisiae cln2 rad14 strain, at 50.0 µM, active compounds read high
# Method: Growth inhibition of yeast strains with defined genetic alterations is measured as a screen for potential anti-cancer activity. Selected strains with alterations in DNA damage repair or cell cycle control were exposed to compounds and growth inhibition was measured relative to vehicle treated controls. The strain used in this assay is cln2 rad14
About 79,000 compounds went through this panel and 15% of them were active in at least one assay; those are over-represented in the sample as a whole.
Reported growth inhibition values follow for various compounds
measured-parameter: growth inhibition (%)

1) CN1CCC(O)(c2ccccc2)C(C(O)c2ccccc2)C1 (centres undefined) : -8.55
2) CCOP(=O)(NCc1ccccc1)c1ccc(N)cc1 (centres undefined) : 1.95
3) c1ccc(CC2NC(Cc3ccccc3)N3C(Cc4ccccc4)N23)cc1 (centres undefined) : -6.25
4) CC(Br)C(N)=O (centres undefined) : -20.4
5) N=c1nc(N)n2c(N)nc(=N)n12 : 4.05
6) c1cc[n+]2c(c1)-c1cccc[n+]1CC2 : 26
7) N.N.N.N.N.O=C([O-])C(=O)[O-].[Co+3].[O-][Cl+3]([O-])([O-])O.[O-][Cl+3]([O-])([O-])[O-] : 6.2
8) CC#CC(O)(C(=O)OC)c1ccccc1 (centres undefined) : -23.6
9) CN(C)CCNC(=O)c1cccc(COC(=O)N(CCCl)CCCl)c1[N+](=O)[O-] : 10.1
10) CC(=O)Nc1ccc(-c2ccccc2)cc1 : 17.9
11) N#CS.N=C=S.N=C=S.[Co+3].[NH-]CC[NH-].[NH-]CC[NH-] : 3.5
12) COc1ccc(C(=O)O)cc1[N+](=O)[O-] (tested in a mixture with another compound) : 7.4
13) O=C(O)c1cc(Cl)nc(Cl)c1 : -26.2
14) COc1ccc2c(c1OC)C[N+]1(C)CCc3cc4c(cc3C1=C2)OCO4 (centres undefined) : -1.95
15) O=c1[nH]cc(Cn2cccc3c(=O)ncnc2-3)c(=O)[nH]1 : -43.5
16) O=[N+]([O-])c1cc2n[nH]nc2c2nonc12 : -2.05
17) C=CC(Cl)OC(=O)C(C)O (centres undefined) : 11.3
18) C=C1C(=O)OC2CC3(C)OC3C3OC3C3=CC(OC3=O)C12 (centres undefined) : 29.6
19) CSc1nc2cc(Cl)ccc2c2c1C=NCCN2 : -43.4

====

# experimental-protocol: NCI Yeast Anticancer Drug Screen. Data for the bub3 strain (AID 167)
# condition-parameters: S. cerevisiae bub3 mutant strain, at 50.0 µM, active compounds read high
This is part of a sample that, as a whole, favours compounds with a hit. Of some 79,000 tested, about 15% had one in any assay.
measured-parameter: growth inhibition (%)

1) CN(C)CCN1C(=O)CN=C(c2ccccc2Cl)c2cc(Cl)ccc21 : 0.2
2) CCC1(/C=C/C(C)C)C(=O)NC(=S)NC1=O : 0.05
3) C1CCN2CC3CONC3C2C1 (centres undefined) : -6.2
4) O[As](O)O.S=C(S)c1ccccc1S : 1.75
5) CCOP(=O)(O)SP(=O)(O)OCC.[Zn+2] : -5.45
6) O=S(=O)(F)c1ccccc1C[P+](c1ccccc1)(c1ccccc1)c1ccccc1 : 82.8
7) CC(C)(C)P(O)(=S)c1ccccc1 (centres undefined) (tested in a mixture with another compound) : -24.6
8) CC(C)/C=C/C1(C(C)C)C(=O)NC(=O)NC1=O : 3.9
9) Cc1ccccc1.[C-]#[O+].[C-]#[O+].[C-]#[O+].[W] : 24.9
10) Nc1ccc2c(c1)Cc1cc(N)ccc1-2 : 37
11) C[As+](C)(C)c1ccc(Br)c([N+](=O)[O-])c1 : -1.3
12) CC1CC(C)(C)[N+](C)(CCC(C(N)=O)(c2ccccc2)c2ccccc2)C1 (centres undefined) : -16.4
13) NC(=O)Oc1ccccc1 : -10
14) Cc1ccc([NH-])cc1.Cc1ccc([NH-])cc1.[Cl][Pt+2][Cl] : 3.55
15) N#CNC(N)=S : -14.3
16) CCOC(=O)N(NC(=O)c1ccc(N(CCCl)CCCl)cc1)C(C)=O : 5.65
17) NC(=O)OC(CCl)CCl : -10
18) COC(=O)CN(CCCl)P1(=O)OCCCN1CCCl (centres undefined) : 10.3
19) C/C(=N\N=C(N)N)C(CN(C)C)C(c1ccccc1)c1c(O)c2ccccc2oc1=O (centres undefined) : -1.5
